# target system: DNMT3B (DNMT3b1) (Homo sapiens, UniProt Q9UBC3 Q9UBC3:1-853)
# protocol summary: inhibition; 25 nM DNMT3B, lambda DNA substrate, 1 uM SAM; Table 5 gives 18.9 uM
reported endpoint: IC50 (µM)
Answers are plain numbers, in µM.

q: Query (binder): CCTATGCGATCGAGTTTTCTCGATCGCATAGG (structured_DNA, zebularine (pyrimidin-2-one ribonucleoside) at 21 and 25; phosphodiester [21,25]) [MTC-423] ; field requested: IC50
a: 17.5
